Target Under Test: T1, human LAG3-His tagged recombinant protein (human)
T1 construct: also called human LAG3-His protein; recombinant human LAG3
T1 sequence (P18627 23-450): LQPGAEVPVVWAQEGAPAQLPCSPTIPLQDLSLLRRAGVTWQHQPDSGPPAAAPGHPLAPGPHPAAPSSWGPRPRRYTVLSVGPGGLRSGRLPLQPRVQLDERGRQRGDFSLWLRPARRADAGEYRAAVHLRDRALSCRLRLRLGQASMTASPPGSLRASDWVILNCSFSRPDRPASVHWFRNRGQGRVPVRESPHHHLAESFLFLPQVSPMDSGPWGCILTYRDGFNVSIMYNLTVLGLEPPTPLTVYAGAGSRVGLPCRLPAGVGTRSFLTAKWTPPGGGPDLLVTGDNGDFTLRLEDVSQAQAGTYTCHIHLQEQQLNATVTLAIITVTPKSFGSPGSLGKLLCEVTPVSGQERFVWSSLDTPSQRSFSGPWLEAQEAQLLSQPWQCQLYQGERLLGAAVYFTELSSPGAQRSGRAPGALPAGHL
Method Summary: SPR, Biacore T200; antibody captured, human LAG3-His as analyte, 1:1 Langmuir fit; average
The binders listed here are annotated with their Kd.
The figure you give is taken to be in pM; do not add the unit.

{"Binder": "ADI-12126 (Q1E, M57S, M115L) IgG4 S228P/Kappa (antibody, V domains shown) VH: EVQLVQSGAEVKKPGASVKVSCKASGYTFTGYYMHWVRQAPGQGLEWMGWINANSGSTNYAQKFQGRVTMTRDTSISTAYMELSRLRSDDTAVYYCARDIYDSSDQLNVWGQGTLVTVSS VL: EIVLTQSPATLSLSPGERATLSCRASQSVSSYLAWYQQKPGQAPRLLIYDASNRATGIPARFSGSGSGTDFTLTISSLEPEDFAVYYCQQASIWPLTFGGGTKVEIKR", "Kd, pM": 127}

Name the recorded Kd for ADI-12126 (Q1E, M57V, M115L) IgG4 S228P/Kappa (antibody, V domains shown) VH: EVQLVQSGAEVKKPGASVKVSCKASGYTFTGYYMHWVRQAPGQGLEWMGWINANSGVTNYAQKFQGRVTMTRDTSISTAYMELSRLRSDDTAVYYCARDIYDSSDQLNVWGQGTLVTVSS VL: EIVLTQSPATLSLSPGERATLSCRASQSVSSYLAWYQQKPGQAPRLLIYDASNRATGIPARFSGSGSGTDFTLTISSLEPEDFAVYYCQQASIWPLTFGGGTKVEIKR . 266

Name the recorded Kd for ADI-12126 (Q1E, M57T, M115L) IgG4 S228P/Kappa (antibody, V domains shown) VH: EVQLVQSGAEVKKPGASVKVSCKASGYTFTGYYMHWVRQAPGQGLEWMGWINANSGTTNYAQKFQGRVTMTRDTSISTAYMELSRLRSDDTAVYYCARDIYDSSDQLNVWGQGTLVTVSS VL: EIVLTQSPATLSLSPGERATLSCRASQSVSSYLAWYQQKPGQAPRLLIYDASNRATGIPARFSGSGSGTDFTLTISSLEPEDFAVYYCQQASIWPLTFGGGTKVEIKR . 66

Name the recorded Kd for ADI-12126 (Q1E, M57Y, M115L) IgG4 S228P/Kappa (antibody, V domains shown) VH: EVQLVQSGAEVKKPGASVKVSCKASGYTFTGYYMHWVRQAPGQGLEWMGWINANSGYTNYAQKFQGRVTMTRDTSISTAYMELSRLRSDDTAVYYCARDIYDSSDQLNVWGQGTLVTVSS VL: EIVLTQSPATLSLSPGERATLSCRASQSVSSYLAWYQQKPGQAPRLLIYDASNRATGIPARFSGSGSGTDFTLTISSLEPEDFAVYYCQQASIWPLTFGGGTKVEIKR . 33
